Target: MYLK (human) (UniProt Q15746)
Sequence (Q15746 whole entry, looked up): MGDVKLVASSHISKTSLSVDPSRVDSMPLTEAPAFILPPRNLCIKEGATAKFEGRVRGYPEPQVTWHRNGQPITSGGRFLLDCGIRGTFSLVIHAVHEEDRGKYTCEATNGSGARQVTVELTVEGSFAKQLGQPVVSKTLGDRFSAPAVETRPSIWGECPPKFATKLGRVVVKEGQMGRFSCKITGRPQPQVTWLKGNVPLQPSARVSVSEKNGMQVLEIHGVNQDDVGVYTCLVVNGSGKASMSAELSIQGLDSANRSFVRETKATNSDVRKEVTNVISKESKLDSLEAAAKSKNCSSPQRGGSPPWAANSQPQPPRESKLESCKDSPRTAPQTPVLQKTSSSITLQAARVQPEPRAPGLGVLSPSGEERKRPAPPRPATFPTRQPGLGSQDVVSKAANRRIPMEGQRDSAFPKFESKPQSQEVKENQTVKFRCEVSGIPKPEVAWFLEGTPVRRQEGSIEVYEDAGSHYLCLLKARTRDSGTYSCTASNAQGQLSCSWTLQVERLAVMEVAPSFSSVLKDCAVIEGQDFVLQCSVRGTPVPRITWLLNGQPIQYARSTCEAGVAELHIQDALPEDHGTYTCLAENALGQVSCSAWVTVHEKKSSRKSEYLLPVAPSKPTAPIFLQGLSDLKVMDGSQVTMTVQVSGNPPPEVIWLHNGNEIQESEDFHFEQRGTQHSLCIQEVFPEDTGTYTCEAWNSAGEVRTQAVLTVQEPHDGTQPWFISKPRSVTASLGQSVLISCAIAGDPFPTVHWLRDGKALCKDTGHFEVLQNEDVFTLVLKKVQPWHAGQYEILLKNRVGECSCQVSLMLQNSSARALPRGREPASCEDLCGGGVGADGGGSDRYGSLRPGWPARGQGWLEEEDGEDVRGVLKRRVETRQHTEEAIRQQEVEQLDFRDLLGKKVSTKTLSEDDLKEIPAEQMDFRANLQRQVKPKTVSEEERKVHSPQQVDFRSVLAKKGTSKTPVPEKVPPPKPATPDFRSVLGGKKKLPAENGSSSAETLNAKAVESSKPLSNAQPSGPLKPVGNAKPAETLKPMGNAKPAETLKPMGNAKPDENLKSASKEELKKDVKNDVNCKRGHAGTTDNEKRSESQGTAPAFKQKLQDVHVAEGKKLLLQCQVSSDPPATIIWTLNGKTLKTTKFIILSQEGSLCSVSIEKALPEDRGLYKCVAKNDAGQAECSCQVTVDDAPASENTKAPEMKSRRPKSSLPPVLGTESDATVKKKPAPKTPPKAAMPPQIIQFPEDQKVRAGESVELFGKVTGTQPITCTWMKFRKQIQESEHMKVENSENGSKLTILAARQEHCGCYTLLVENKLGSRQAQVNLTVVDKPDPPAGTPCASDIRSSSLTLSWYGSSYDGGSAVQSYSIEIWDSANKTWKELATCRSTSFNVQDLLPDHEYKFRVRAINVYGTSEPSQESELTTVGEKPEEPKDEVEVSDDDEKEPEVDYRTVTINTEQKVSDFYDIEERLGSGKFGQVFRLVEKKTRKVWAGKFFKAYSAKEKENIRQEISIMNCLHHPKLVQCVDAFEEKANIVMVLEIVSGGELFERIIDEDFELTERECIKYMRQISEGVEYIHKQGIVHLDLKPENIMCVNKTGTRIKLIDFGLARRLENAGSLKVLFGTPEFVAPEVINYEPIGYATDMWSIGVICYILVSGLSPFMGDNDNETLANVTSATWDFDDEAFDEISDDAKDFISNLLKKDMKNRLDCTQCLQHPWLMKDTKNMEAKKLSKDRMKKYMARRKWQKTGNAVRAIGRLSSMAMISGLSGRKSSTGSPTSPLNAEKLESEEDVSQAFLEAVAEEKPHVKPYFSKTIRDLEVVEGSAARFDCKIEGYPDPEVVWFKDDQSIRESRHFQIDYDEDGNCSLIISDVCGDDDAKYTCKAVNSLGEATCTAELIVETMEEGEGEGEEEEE
Experiment: radiometric filter-binding kinase assay, Kinase HotSpot
Conditions: compound 0.5 µM; ATP 10 µM
Response field label takes YES when residual activity is strictly below 90% and NO in all other cases.

Check out these entries, answers already filled in.
INSERT INTO measurements (mol, label) VALUES
  ('Cn1c2ccccc2c2c3c(c4c5ccccc5n(CCC#N)c4c21)CNC3=O', 'YES'),
  ('COc1cc(Nc2c(C#N)cnc3cc(OCCCN4CCN(C)CC4)c(OC)cc23)c(Cl)cc1Cl', 'YES'),
  ('COc1ccc(C(=O)Nc2sc3c(c2C(N)=O)CCCC3)cc1OC', 'YES'),
  ('CO[C@@H]1[C@H](N(C)C(=O)c2ccccc2)C[C@H]2O[C@]1(C)n1c3ccccc3c3c4c(c5c6ccccc6n2c5c31)C(=O)NC4', 'YES'),
  ('Cc1cncc2cccc(S(=O)(=O)N3CCCN(C(=O)CN)C[C@H]3C)c12', 'NO');

INPUT: Lab note: confirm whether the reported residual activity for this compound is below 90%, equality not counting. compound: O=C1c2ccccc2-c2nc3nnnn3nc21
OUTPUT: NO

INPUT: In the record for COc1ccc(Cl)cc1NC(=O)Nc1cc(C)nc2ccccc12 , is residual activity less than 90%?
OUTPUT: NO

INPUT: A record lists O=C1C(Cl)=C(N2C(=O)CCC2=O)C(=O)c2ccccc21 . Is its residual activity below 90%?
OUTPUT: NO

INPUT: Dear colleague, could you confirm whether residual activity of COc1cc2ncnc(Nc3ccc(Oc4ccccc4)cc3)c2cc1OC falls below 90%? Thanks.
OUTPUT: NO
